- test description: in vivo
- assay conditions: male, BALB/c nu/nu, mouse, iv, 500 pmol, total radioactivity, SUV tumor
Non-standard residues stand in square brackets, D forms with d. Residues, ends and D or L forms follow the SMILES beside them. *: point of attachment. DOTA = O=C(O)CN1CCN(CC(=O)O)CCN(CC(=O)*)CCN(CC(=O)O)CC1; EuK = O=C(O)CC[C@H](NC(=O)N[C@@H](CCCCN*)C(=O)O)C(=O)O; 2Nal = N[C@@H](Cc1ccc2ccccc2c1)C(=O)O; Trx = NC[C@H]1CC[C@H](C(=O)O)CC1

molecule: O=C(O)CC[C@H](NC(=O)N[C@@H](CCCCNC(=O)[C@H](CCC(=O)O)NC(=O)[C@H](CCC(=O)O)NC(=O)[C@H](CCC(=O)O)NC(=O)[C@H](Cc1ccc2ccccc2c1)NC(=O)[C@H]1CC[C@H](CNC(=O)CN2CCN(CC(=O)O)CCN(CC(=O)O)CCN(CC(=O)O)CC2)CC1)C(=O)O)C(=O)O [PS6, EuK-E3-NaI-ChX-DOTA] ({DOTA-Trx}-[2Nal]EEE-EuK)
SUV at 1 h [SUV]: 0.69
--
molecule: O=C(O)CC[C@H](NC(=O)N[C@@H](CCCCNC(=O)[C@H](Cc1ccc2ccccc2c1)NC(=O)[C@H]1CC[C@H](CNC(=O)[C@H](Cc2c[nH]cn2)NC(=O)[C@H](CCC(=O)O)NC(=O)[C@H](Cc2c[nH]cn2)NC(=O)[C@H](CCC(=O)O)NC(=O)[C@H](Cc2c[nH]cn2)NC(=O)[C@H](CCC(=O)O)NC(=O)CN2CCN(CC(=O)O)CCN(CC(=O)O)CCN(CC(=O)O)CC2)CC1)C(=O)O)C(=O)O [PS3, EuK-NaI-ChX-(HE)3-DOTA] ({DOTA}-EHEHEH[Trx][2Nal]-EuK)
SUV at 1 h [SUV]: 0.93
--
molecule: O=C(O)CC[C@H](NC(=O)N[C@@H](CCCCNC(=O)[C@H](Cc1ccc2ccccc2c1)NC(=O)[C@H]1CC[C@H](CNC(=O)[C@H](CCC(=O)O)NC(=O)[C@H](CCC(=O)O)NC(=O)[C@H](CCC(=O)O)NC(=O)CN2CCN(CC(=O)O)CCN(CC(=O)O)CCN(CC(=O)O)CC2)CC1)C(=O)O)C(=O)O [PS8, EuK-NaI-ChX-E3-DOTA] ({DOTA}-EEE[Trx][2Nal]-EuK)
SUV at 1 h [SUV]: 1.32

----------
List of SUV at 2 h values.
- test description: in vivo
- assay conditions: male, BALB/c nu/nu, mouse, iv, 500 pmol, total radioactivity, SUV kidneys
Non-standard residues stand in square brackets, D forms with d. Residues, ends and D or L forms follow the SMILES beside them. *: point of attachment. DOTA = O=C(O)CN1CCN(CC(=O)O)CCN(CC(=O)*)CCN(CC(=O)O)CC1; EuK = O=C(O)CC[C@H](NC(=O)N[C@@H](CCCCN*)C(=O)O)C(=O)O; 2Nal = N[C@@H](Cc1ccc2ccccc2c1)C(=O)O; Trx = NC[C@H]1CC[C@H](C(=O)O)CC1

compound: O=C(O)CC[C@H](NC(=O)N[C@@H](CCCCNC(=O)[C@H](Cc1ccc2ccccc2c1)NC(=O)[C@H](Cc1c[nH]cn1)NC(=O)[C@H](CCC(=O)O)NC(=O)[C@H](Cc1c[nH]cn1)NC(=O)[C@H](CCC(=O)O)NC(=O)[C@H](Cc1c[nH]cn1)NC(=O)[C@H](CCC(=O)O)NC(=O)[C@H]1CC[C@H](CNC(=O)CN2CCN(CC(=O)O)CCN(CC(=O)O)CCN(CC(=O)O)CC2)CC1)C(=O)O)C(=O)O [PS2, EuK-NaI-(HE)3-ChX-DOTA] ({DOTA-Trx}-EHEHEH[2Nal]-EuK)
SUV at 2 h: 1.01 SUV

compound: O=C(O)CC[C@H](NC(=O)N[C@@H](CCCCNC(=O)[C@H](Cc1c[nH]cn1)NC(=O)[C@H](CCC(=O)O)NC(=O)[C@H](Cc1c[nH]cn1)NC(=O)[C@H](CCC(=O)O)NC(=O)[C@H](Cc1c[nH]cn1)NC(=O)[C@H](CCC(=O)O)NC(=O)[C@H](Cc1ccc2ccccc2c1)NC(=O)[C@H]1CC[C@H](CNC(=O)CN2CCN(CC(=O)O)CCN(CC(=O)O)CCN(CC(=O)O)CC2)CC1)C(=O)O)C(=O)O [PS1, EuK-(HE)3-NaI-ChX-DOTA] ({DOTA-Trx}-[2Nal]EHEHEH-EuK)
SUV at 2 h: 1.32 SUV

compound: O=C(O)CC[C@H](NC(=O)N[C@@H](CCCCNC(=O)[C@H](Cc1ccc2ccccc2c1)NC(=O)[C@H]1CC[C@H](CNC(=O)[C@H](Cc2c[nH]cn2)NC(=O)[C@H](Cc2c[nH]cn2)NC(=O)[C@H](Cc2c[nH]cn2)NC(=O)CN2CCN(CC(=O)O)CCN(CC(=O)O)CCN(CC(=O)O)CC2)CC1)C(=O)O)C(=O)O [PS11, EuK-NaI-ChX-H3-DOTA] ({DOTA}-HHH[Trx][2Nal]-EuK)
SUV at 2 h: 0.77 SUV

compound: O=C(O)CC[C@H](NC(=O)N[C@@H](CCCCNC(=O)[C@H](Cc1c[nH]cn1)NC(=O)[C@H](Cc1c[nH]cn1)NC(=O)[C@H](Cc1c[nH]cn1)NC(=O)[C@H](Cc1ccc2ccccc2c1)NC(=O)[C@H]1CC[C@H](CNC(=O)CN2CCN(CC(=O)O)CCN(CC(=O)O)CCN(CC(=O)O)CC2)CC1)C(=O)O)C(=O)O [PS9, EuK-H3-NaI-ChX-DOTA] ({DOTA-Trx}-[2Nal]HHH-EuK)
SUV at 2 h: 0.74 SUV

compound: O=C(O)CC[C@H](NC(=O)N[C@@H](CCCCNC(=O)[C@H](Cc1ccc2ccccc2c1)NC(=O)[C@H]1CC[C@H](CNC(=O)[C@H](Cc2c[nH]cn2)NC(=O)[C@H](CCC(=O)O)NC(=O)[C@H](Cc2c[nH]cn2)NC(=O)[C@H](CCC(=O)O)NC(=O)[C@H](Cc2c[nH]cn2)NC(=O)[C@H](CCC(=O)O)NC(=O)[C@H](Cc2c[nH]cn2)NC(=O)[C@H](CCC(=O)O)NC(=O)CN2CCN(CC(=O)O)CCN(CC(=O)O)CCN(CC(=O)O)CC2)CC1)C(=O)O)C(=O)O [PS5, EuK-NaI-ChX-(HE)4-DOTA] ({DOTA}-EHEHEHEH[Trx][2Nal]-EuK)
SUV at 2 h: 2.37 SUV

compound: O=C(O)CC[C@H](NC(=O)N[C@@H](CCCCNC(=O)[C@H](Cc1ccc2ccccc2c1)NC(=O)[C@H]1CC[C@H](CNC(=O)[C@H](Cc2c[nH]cn2)NC(=O)[C@H](CCC(=O)O)NC(=O)[C@H](Cc2c[nH]cn2)NC(=O)[C@H](CCC(=O)O)NC(=O)[C@H](Cc2c[nH]cn2)NC(=O)[C@H](CCC(=O)O)NC(=O)CN2CCN(CC(=O)O)CCN(CC(=O)O)CCN(CC(=O)O)CC2)CC1)C(=O)O)C(=O)O [PS3, EuK-NaI-ChX-(HE)3-DOTA] ({DOTA}-EHEHEH[Trx][2Nal]-EuK)
SUV at 2 h: 1.56 SUV

----------
- test description: Static small-animal PET imaging 1 h and 2 h p.i.
- assay conditions: male, BALB/c nu/nu, mouse, tumor (LNCaP xenograft), iv, 500 pmol, total radioactivity, SUV tumor, 68Ga-labeled, 0.5 nmol i.v.; static PET 2 h p.i.; n = 1, SD from VOIs
Non-standard residues stand in square brackets, D forms with d. Residues, ends and D or L forms follow the SMILES beside them. *: point of attachment. DOTA = O=C(O)CN1CCN(CC(=O)O)CCN(CC(=O)*)CCN(CC(=O)O)CC1; EuK = O=C(O)CC[C@H](NC(=O)N[C@@H](CCCCN*)C(=O)O)C(=O)O; 2Nal = N[C@@H](Cc1ccc2ccccc2c1)C(=O)O; Trx = NC[C@H]1CC[C@H](C(=O)O)CC1
outcome measure: SUV at 2 h

molecule: O=C(O)CC[C@H](NC(=O)N[C@@H](CCCCNC(=O)[C@H](Cc1c[nH]cn1)NC(=O)[C@H](CCC(=O)O)NC(=O)[C@H](Cc1c[nH]cn1)NC(=O)[C@H](CCC(=O)O)NC(=O)[C@H](Cc1c[nH]cn1)NC(=O)[C@H](CCC(=O)O)NC(=O)[C@H](Cc1ccc2ccccc2c1)NC(=O)[C@H]1CC[C@H](CNC(=O)CN2CCN(CC(=O)O)CCN(CC(=O)O)CCN(CC(=O)O)CC2)CC1)C(=O)O)C(=O)O [[^68Ga]Ga-PS1, metal not drawn] ({DOTA-Trx}-[2Nal]EHEHEH-EuK)
outcome measure: SUV at 2 h
result: 0.3 SUV

molecule: O=C(O)CC[C@H](NC(=O)N[C@@H](CCCCNC(=O)[C@H](Cc1ccc2ccccc2c1)NC(=O)[C@H]1CC[C@H](CNC(=O)[C@H](CCC(=O)O)NC(=O)[C@H](Cc2c[nH]cn2)NC(=O)[C@H](CCC(=O)O)NC(=O)[C@H](Cc2c[nH]cn2)NC(=O)[C@H](CCC(=O)O)NC(=O)[C@H](Cc2c[nH]cn2)NC(=O)CN2CCN(CC(=O)O)CCN(CC(=O)O)CCN(CC(=O)O)CC2)CC1)C(=O)O)C(=O)O [[^68Ga]Ga-PS4, metal not drawn] ({DOTA}-HEHEHE[Trx][2Nal]-EuK)
outcome measure: SUV at 2 h
result: 1.07 SUV

Values from paper PMC12775819
